Target: human recombinant Bcl-2 protein (Homo sapiens, UniProt P10415)
Sequence (P10415 whole entry): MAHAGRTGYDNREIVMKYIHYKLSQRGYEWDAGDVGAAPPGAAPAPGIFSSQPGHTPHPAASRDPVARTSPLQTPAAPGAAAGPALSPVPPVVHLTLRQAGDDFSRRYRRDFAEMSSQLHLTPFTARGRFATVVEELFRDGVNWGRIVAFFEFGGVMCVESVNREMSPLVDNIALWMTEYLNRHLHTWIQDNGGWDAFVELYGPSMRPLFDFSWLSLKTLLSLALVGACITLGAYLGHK
Assay: Fluorescence polarization test for inhibition of BCL-2 binding to FITC-BIM
Conditions: 5 nM BCL-2, 5 nM FITC-BIM, read-out: FP BCL-2 IC50
Method: Fluorescence polarization assay was used to evaluate the effect of the compounds of the present invention on the biological activity of BCL-2. The effects of the compounds on the biological activity of BCL-2 were evaluated by determining the effects of the compounds on the binding activity of BCL-2 to leukemia pro-apoptotic protein (BIM) using an affinity assay method based on the principle of fluorescence polarization. […]
Each entry below lists one item and its recorded IC50 value.

{"compound": "C[C@@H]1CN(CC2=C(c3ccc(Cl)cc3)CC(C)(C)CC2)CCN1c1ccc(C(=O)NS(=O)(=O)c2ccc(NC[C@H]3COCCO3)c([N+](=O)[O-])c2)c(Oc2cnc3[nH]ccc3c2)c1 [Example 12]", "IC50": "4.89 nM"}
{"compound": "C[C@H]1CN(c2ccc(C(=O)NS(=O)(=O)c3cc(F)c(NCC4CCOCC4)c([N+](=O)[O-])c3)c(Oc3cnc4[nH]ccc4c3)c2)CCN1CC1=C(c2ccc(Cl)cc2)CC(C)(C)CC1 [Example 7]", "IC50": "> 100 nM"}
{"compound": "C[C@@H]1CN(c2ccc(C(=O)NS(=O)(=O)c3ccc(NC[C@@H]4COCCO4)c([N+](=O)[O-])c3)c(Oc3cnc4[nH]ccc4c3)c2)CCN1CC1=C(c2ccc(Cl)cc2)CCC(C)(C)C1 [Example 54]", "IC50": "11 nM"}

###

// reported IC50 for each item listed
Target: human recombinant Bcl-2 protein (Homo sapiens)
Assay: Fluorescence polarization test for inhibition of BCL-2 binding to FITC-BIM
Details: 5 nM BCL-2, 5 nM FITC-BIM, read-out: FP BCL-2 IC50

{"entrySmiles": "C[C@@H]1CCC(CN2CCN(c3ccc(C(=O)NS(=O)(=O)c4cc(F)c(NCC5CCOCC5)c([N+](=O)[O-])c4)c(Oc4cnc5[nH]ccc5c4)c3)C[C@H]2C)=C(c2ccc(Cl)cc2)C1", "unitOfMeasurement": "nM", "limitSign": "=", "IC50": 1.97}
{"entrySmiles": "C[C@@H]1CN(c2ccc(C(=O)NS(=O)(=O)c3ccc(NCC4CCN(C5COC5)CC4)c([N+](=O)[O-])c3)c(Oc3cnc4[nH]ccc4c3)c2)CCN1CC1=C(c2ccc(Cl)cc2)CC(C)(C)CC1", "unitOfMeasurement": "nM", "limitSign": "=", "IC50": 3.06}
{"entrySmiles": "C[C@H]1CN(CC2=C(c3ccc(Cl)cc3)CC(C)(C)CC2)CCN1c1ccc(C(=O)NS(=O)(=O)c2ccc(NCC3CCOCC3)c([N+](=O)[O-])c2)c(Oc2cnc3[nH]ccc3c2)c1", "unitOfMeasurement": "nM", "limitSign": ">", "IC50": 100}
{"entrySmiles": "C[C@@H]1CCC(CN2CCN(c3ccc(C(=O)NS(=O)(=O)c4ccc(NCC5CCOCC5)c([N+](=O)[O-])c4)c(Oc4cnc5[nH]ccc5c4)c3)[C@H](C)C2)=C(c2ccc(Cl)cc2)C1", "unitOfMeasurement": "nM", "limitSign": "=", "IC50": 9.37}
{"entrySmiles": "C[C@@H]1CN(c2ccc(C(=O)NS(=O)(=O)c3cc(F)c(NC[C@H]4COCCO4)c([N+](=O)[O-])c3)c(Oc3cnc4[nH]ccc4c3)c2)CCN1CC1=C(c2ccc(Cl)cc2)CC(C)(C)C2(CC2)C1", "unitOfMeasurement": "nM", "limitSign": "=", "IC50": 1.8}
{"entrySmiles": "C[C@@H]1CCC(CN2CCN(c3ccc(C(=O)NS(=O)(=O)c4cc(F)c(NCC5CCOCC5)c([N+](=O)[O-])c4)c(Oc4cnc5[nH]ccc5c4)c3)[C@H](C)C2)=C(c2ccc(Cl)cc2)C1", "unitOfMeasurement": "nM", "limitSign": "=", "IC50": 2.71}
{"entrySmiles": "C[C@@H]1CN(c2ccc(C(=O)NS(=O)(=O)c3cc(F)c(NC[C@H]4COCCO4)c([N+](=O)[O-])c3)c(Oc3cnc4[nH]ccc4c3)c2)CCN1CC1=C(c2ccc(Cl)cc2)CC(C)(C)CC1", "unitOfMeasurement": "nM", "limitSign": "=", "IC50": 0.9}
{"entrySmiles": "C[C@H]1CN(c2ccc(C(=O)NS(=O)(=O)c3ccc(NCC4CCOCC4)c([N+](=O)[O-])c3)c(Oc3cnc4[nH]ccc4c3)c2)CCN1CC1=C(c2ccc(Cl)cc2)CC(C)(C)CC1", "unitOfMeasurement": "nM", "limitSign": ">", "IC50": 100}
{"entrySmiles": "C[C@H]1CCC(CN2CCN(c3ccc(C(=O)NS(=O)(=O)c4cc(F)c(NC[C@H]5COCCO5)c([N+](=O)[O-])c4)c(Oc4cnc5[nH]ccc5c4)c3)C[C@H]2C)=C(c2ccc(Cl)cc2)C1", "unitOfMeasurement": "nM", "limitSign": "=", "IC50": 1.46}
{"entrySmiles": "C[C@@H]1CN(CC2=C(c3ccc(Cl)cc3)CCC(C)(C)C2)CCN1c1ccc(C(=O)NS(=O)(=O)c2cc(F)c(NCC3CCOCC3)c([N+](=O)[O-])c2)c(Oc2cnc3[nH]ccc3c2)c1", "unitOfMeasurement": "nM", "limitSign": "=", "IC50": 6.33}

Source listed as patent US20230271959A1.
